- measurementDescription: Clearance in mouse liver microsomes at 1 uM after 20 mins by LC-MS/MS analysis in presence of NADPH
- Assay type: ADME, Microsome
measuredParameter: CLhep predicted at 1 µM (mL/min/kg)
One number for each entry, in mL/min/kg.

For the 6 compounds below, give their CLhep predicted at 1 µM values.
1. CN1C(=O)[C@]2(CC(C)(C)Cc3ccc(-c4cccnc4F)cc32)N=C1N
2. CN1C(=O)C2(CC(C)(C)Cc3ccc(-c4cccnc4F)cc32)N=C1N (racemic)
3. CN1C(=O)C2(CC(C)(C)Sc3ccc(-c4cc(F)cc(Cl)c4)cc32)N=C1N (racemic)
4. CC1(C)Cc2ccc(-c3cncnc3)cc2[C@@]2(COC(N)=N2)C1
5. CN1C(=O)C2(CC(C)(C)Oc3ccc(-c4cc(F)cc(Cl)c4)cc32)N=C1N (racemic)
6. CC1(C)Cc2ccc(-c3cncnc3)cc2C2(COC(N)=N2)C1 (racemic)

Output:
1. 24
2. 59
3. 47
4. 23
5. 15
6. 16
